read-out: Thyroid Hormone Responsive (THRSP), THRSP (gene 7069); test: LTEA_HepaRG_THRSP: Life Technologies and Expression Analysis (LTEA) Assay for Thyroid Hormone Responsive (THRSP) using HepaRG (AID 2283536); details: mRNA level, 48 h; actives raise or lower the signal
Calls of active or inactive are those of the source. Rule for the calls: active = hit-call score of the fitted dose curve at least 0.9, where 1 is the maximum; inactive = score below 0.9.
Returns: one label drawn from active, inactive

# count of solved cases: 3
COMPOUND: CCCCOC(=O)c1ccccc1C(=O)OCCCC
DISCRETE_LABEL: inactive
//
COMPOUND: N#Cc1cc(Br)c(O)c(Br)c1
DISCRETE_LABEL: active
//
COMPOUND: COP(=S)(OC)Oc1nc(Cl)c(Cl)cc1Cl
DISCRETE_LABEL: inactive

Recorded test call requested for COc1cnc(OC)n2nc(NS(=O)(=O)c3c(OCC(F)F)cccc3C(F)(F)F)nc12 active

# outcome recorded in this test, key = CCON=C(CC)C1=C(O)CC(c2c(C)cc(C)cc2C)CC1=O (centres undefined) active

Record request — test call for O=C(Nc1ccccc1)Nc1ccnc(Cl)c1 inactive

Kindly provide the recorded test outcome for the following compound: COC(=O)N(OC)c1ccccc1COc1ccn(-c2ccc(Cl)cc2)n1 active

Status in this test for N#CC(CCc1ccc(Cl)cc1)(Cn1cncn1)c1ccccc1 (centres undefined) ? active

For CCOc1cc(Oc2ccc(C(F)(F)F)cc2Cl)ccc1[N+](=O)[O-] , what call appears in the results of this test? active
